Molecular target: calf thymus DNA polymerase alpha (CT α pol) (Bos taurus)
Construct: calf thymus DNA polymerase alpha (CT α pol); from tissue; host or cells: calf thymus
Sequence (A0AAA9TD94 entry or part of it): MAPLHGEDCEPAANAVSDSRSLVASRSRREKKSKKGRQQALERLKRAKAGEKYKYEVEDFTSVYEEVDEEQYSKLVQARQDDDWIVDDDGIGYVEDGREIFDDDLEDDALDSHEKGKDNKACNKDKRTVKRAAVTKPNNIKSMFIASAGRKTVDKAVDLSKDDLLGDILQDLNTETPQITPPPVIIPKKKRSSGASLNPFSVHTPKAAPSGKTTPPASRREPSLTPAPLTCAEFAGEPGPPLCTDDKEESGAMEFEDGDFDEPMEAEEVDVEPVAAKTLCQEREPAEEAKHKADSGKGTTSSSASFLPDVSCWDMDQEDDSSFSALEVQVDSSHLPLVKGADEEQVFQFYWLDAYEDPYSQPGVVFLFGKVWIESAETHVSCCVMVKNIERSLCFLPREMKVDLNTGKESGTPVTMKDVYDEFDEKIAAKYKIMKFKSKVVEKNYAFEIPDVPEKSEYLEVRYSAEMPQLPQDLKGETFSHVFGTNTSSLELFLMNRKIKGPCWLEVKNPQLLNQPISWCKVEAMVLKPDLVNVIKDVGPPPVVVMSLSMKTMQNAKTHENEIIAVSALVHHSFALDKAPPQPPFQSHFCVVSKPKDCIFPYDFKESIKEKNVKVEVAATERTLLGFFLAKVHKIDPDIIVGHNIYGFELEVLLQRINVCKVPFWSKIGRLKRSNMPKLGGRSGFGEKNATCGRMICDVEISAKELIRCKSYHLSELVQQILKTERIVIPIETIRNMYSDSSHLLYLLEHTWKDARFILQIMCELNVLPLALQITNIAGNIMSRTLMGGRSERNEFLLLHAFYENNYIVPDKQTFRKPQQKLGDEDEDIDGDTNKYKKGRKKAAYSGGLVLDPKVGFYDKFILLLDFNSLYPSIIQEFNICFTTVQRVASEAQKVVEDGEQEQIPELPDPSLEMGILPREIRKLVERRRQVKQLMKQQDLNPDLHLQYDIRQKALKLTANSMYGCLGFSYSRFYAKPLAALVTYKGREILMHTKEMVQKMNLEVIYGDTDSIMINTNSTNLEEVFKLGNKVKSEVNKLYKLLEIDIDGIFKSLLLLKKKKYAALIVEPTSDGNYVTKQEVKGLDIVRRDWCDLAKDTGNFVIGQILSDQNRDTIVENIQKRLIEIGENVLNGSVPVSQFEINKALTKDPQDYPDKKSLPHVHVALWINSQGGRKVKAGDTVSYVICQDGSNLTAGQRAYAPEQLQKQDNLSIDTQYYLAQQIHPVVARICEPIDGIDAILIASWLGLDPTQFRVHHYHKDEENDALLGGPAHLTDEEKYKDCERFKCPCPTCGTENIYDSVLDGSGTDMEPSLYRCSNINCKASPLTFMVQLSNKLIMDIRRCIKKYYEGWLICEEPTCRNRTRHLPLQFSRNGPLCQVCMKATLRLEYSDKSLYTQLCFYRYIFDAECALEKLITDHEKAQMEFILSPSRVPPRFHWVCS
Experiment: DNA polymerase alpha enzyme assay
Assay type: biochemical
Settings: Dark
Source text: Enzyme Assays: The preparation of the enzyme and the assay conditions used, were recently described by Schinazi, et al., Antimicrob. Agents Chemother. 33, 115-117 (1989). […] Median-Effect Method: EC50 and IC50 values were obtained by analysis of the data using the median-effect equation (Chou, T., et al., “Quantitative Analysis of Dose-Effect Relationships: The Combined Effects of Multiple Drugs or Enzyme Inhibitors,” Adv. Enz. Regul. 22, 27-55 (1984). […]
Assay Metric: pIC50
The scale used: pIC50 is minus the common logarithm of the concentration in molar units.

pIC50 reading for `CN(C)c1ccc2nc3ccc(N(C)C)cc3[s+]c2c1.[Cl-]` : 3.98

---

test: CEM cell proliferation (cytotoxicity) assay; type: cell-based; conditions: human
Assay Metric: IC50 at 6 days

`Nc1nc2c(ncn2COCCO)c(=O)[nH]1` has a reported IC50 at 6 days of > 100 µM

---

tested on: HIV-1 (strain LAV-1); assay: Inhibition of HIV-1 replication in human PBMC (supernatant RT activity); assay type: cell-based; conditions: Human immunodeficiency virus 1, PBMC; light; read-out: Antiviral Effect: EC50 HIV-1
pEC50: −log10 of the molar value.
Assay Metric: pEC50

Record `Nc1nc2c(ncn2COCCO)c(=O)[nH]1` , field pEC50: < 4.00

---

tested on: HIV-1 (strain LAV-1); test: Inhibition of HIV-1 replication in human PBMC (supernatant RT activity); assay type: cell-based; conditions: Human immunodeficiency virus 1, PBMC, read-out: Antiviral Effect: EC50 HIV-1, dark
Assay Metric: pEC50
As a rule, pEC50 stands for the negative log10 of the concentration, concentration in M.

// sample CN(C)c1ccc2nc3ccc(N(C)C)cc3[s+]c2c1.[Cl-] [MB] , its pEC50 was 6.85
